Measured half-life, listed per entry.
System: CYP3A4
Test: CYP3A4 metabolism half-life (t1/2)
Settings: human

| compound | result |
| --- | --- |
| CC(O)(CCN1C(=O)CC2(CCCC2)CC1=O)CN1CCN(c2ncccn2)CC1 (stereo not given) | 8.6 min |
| O=C1c2ccccc2C(=O)N1CCCCN1CCN(c2ncccn2)CC1 | 26.8 min |
| O=C1CC2(CCCC2)CC(=O)N1CCC(O)CN1CCN(c2cnccn2)CC1 (stereo not given) | 9.6 min |
| O=C1c2ccccc2C(=O)N1CCCCN1CCN(c2ncc(F)cn2)CC1 | 20.4 min |

Now for the compound whose half-life we want.
Prompt: Tell me measured half-life for O=C1CC2(CCCC2)CC(=O)N1CCCCN1CCN(c2cnccn2)CC1 please.
Response: 5.5 min
